These data points were gathered from the array DNA melting data of Ke et al. (doi:10.1101/2024.01.08.574731).

Experiment: folding enthalpy; higher = less favourable; fluorescence melt of hairpins on a sequencing array, two-state fit
Conditions: sodium 0.088 M
measurement-label: folding enthalpy

Solved entries:
Query block: Form field: reported folding enthalpy of GACGGAGGAAACTCTGTC (((.(((....))).)))
Result block: -39.4 kcal/mol

Query block: How about this sequence: GATCACGGAAACATGATC (((((.(....).)))))
Result block: -26 kcal/mol

Query block: How about this sequence: GTTGGCGAAAGCCAGAAC ((((((....)))..)))
Result block: -8.8 kcal/mol

Query block: How about this sequence: GATCATGGCAATGATC ((((((....))))))
Result block: -41.9 kcal/mol

Query block: How about this sequence: GTTTAGGCGAAAGCCAAC (((..(((....))))))
Result block: -10.1 kcal/mol

New cases:
Query block: Form field: reported folding enthalpy of GGGCACGAAAGTGTTCCC ((((((....)))..)))
Result block: -17.7 kcal/mol

Query block: How about this sequence: GGTAATGGAAACATTGCC ((.((((....)))).))
Result block: -29.2 kcal/mol

Query block: How about this sequence: GGGAATCGAAAGATCCC (((.(((....))))))
Result block: -24.6 kcal/mol

Query block: How about this sequence: GGACTTCGAAAGAAATCC (((.(((....))).)))
Result block: -26.6 kcal/mol

Query block: How about this sequence: GGGCCACGAAAGTGTCCC (((.(((....))).)))
Result block: -45.3 kcal/mol

Query block: How about this sequence: GTAGTGCGAAAGCATTAC (((.(((....))).)))
Result block: -25.6 kcal/mol

Query block: How about this sequence: GACTTCCGAAAGGACGTC (((.(((....))).)))
Result block: -32.3 kcal/mol

###

Assay: folding enthalpy; higher = less favourable; fluorescence melt of hairpins on a sequencing array, two-state fit
Details: sodium 0.088 M
Rule: folding enthalpy under -20 kcal/mol gives class 0, otherwise class 1.

Below, 5 sequences whose answers are already recorded.
Query block: Given GATCGCGAAAGCGAATC ((((((....))).))) , state whether its folding enthalpy is at least -20 kcal/mol.
Result block: class 1

Query block: How about this sequence: GGACTGCCGAAAGGCTCC (((..(((....))))))
Result block: class 1

Query block: How about this sequence: GGAGTCGGAAACGACTTC (.(((((....))))).)
Result block: class 0

Query block: How about this sequence: GGTTGTCGAAAGACACC (((.(((....))))))
Result block: class 0

Query block: How about this sequence: GCACAGACGAAAGTCTGC (((..(((....))))))
Result block: class 1

New cases:
Query block: Given GATCTCATTTGAGATC ((((((....)))))) , state whether its folding enthalpy is at least -20 kcal/mol.
Result block: class 0

Query block: How about this sequence: GTTTGGGCGAAAGCCAAC (((..(((....))))))
Result block: class 1

Query block: How about this sequence: GATCCCCGCAGGGATC ((((((....))))))
Result block: class 1

Query block: How about this sequence: GTGAGCGGAAACGCTCGC (.(((((....))))).)
Result block: class 1

Query block: How about this sequence: CGGTCGGAAACGATCCCG ((((((....)))..)))
Result block: class 1

Query block: How about this sequence: GGGCCAGGAAACTGGCTC (.(((((....))))).)
Result block: class 1

Query block: How about this sequence: GCACTGAAAAGTGC (((((....)))))
Result block: class 0

###

Assay: melting temperature; fluorescence melt of hairpins on a sequencing array, two-state fit, raised by 9.35 °C to match UV melts
Conditions: sodium 0.088 M
Measured Tm of individual entries
The response must be a number in °C with no trailing unit.

Query block: Form field: reported Tm of CGCGGAAGGGTCCGCG ((((((....))))))
Result block: 69.3

New cases:
Query block: Form field: reported Tm of GCATGGCGAAAGCGTTGC (((..((....))..)))
Result block: 48

Query block: How about this sequence: GATCGTCGGACGATC ((((((...))))))
Result block: 53.8

Query block: How about this sequence: GGAGTCGGAAACGACTTC (.(((((....))))).)
Result block: 55.5

Query block: How about this sequence: GCTAGCGAAAGCTGAGC ((((((....))).)))
Result block: 49.9

Query block: How about this sequence: GGCGTAACGAAAGTTGCC (((..(((....))))))
Result block: 48.9

Query block: How about this sequence: GATTGACGAAAGTCGATC (((.(((....))).)))
Result block: 54.2

Query block: How about this sequence: GTGGGTGGAAACGCCCAC (((((.(....).)))))
Result block: 61.8

Query block: How about this sequence: GTCACGGGAAACCGTGAC (((((((....)))))))
Result block: 68.9

Query block: How about this sequence: CGGGCGGAAACGCTGCCG ((((((....)))..)))
Result block: 45.8

Query block: How about this sequence: GATCTAAACATAGATC ((((((....))))))
Result block: 37

Query block: How about this sequence: GATCTTCATAAAGATC ((((((....))))))
Result block: 43.5

Query block: How about this sequence: GTGTACGGAAACGTACGC (.(((((....))))).)
Result block: 55.1

Query block: How about this sequence: GCACCCGAAAGGGGGTGC ((((((....)))..)))
Result block: 66.8

Query block: How about this sequence: GGGTATGGAAACATACTC (.(((((....))))).)
Result block: 44.8

###

Test: melting temperature; fluorescence melt of hairpins on a sequencing array, two-state fit, raised by 9.35 °C to match UV melts
Settings: sodium 0.088 M
Rule: Tm under 50 °C gives 0, otherwise 1.

Query block: Given GATTTACGAAAGTAATC (((.(((....)))))) , state whether its Tm is at least 50 °C.
Result block: 0

Query block: How about this sequence: GCGATGCGAAAGCATAGC ((.((((....)))).))
Result block: 1

Query block: How about this sequence: GGGGATCGAAAGATTCCC (((.(((....))).)))
Result block: 1

Query block: How about this sequence: GATCTAGGCGTAGATC ((((((....))))))
Result block: 0

Query block: How about this sequence: GCGTCAGGAAACCGACAC (.(((.(....).))).)
Result block: 0

Query block: How about this sequence: AGTCGGAAACGACT (((((....)))))
Result block: 1

New cases:
Query block: Given GCTCCGGGAAACTGGAGC (((((.(....).))))) , state whether its Tm is at least 50 °C.
Result block: 1

Query block: How about this sequence: GATCTTGGAAAGATC ((((((...))))))
Result block: 1

Query block: How about this sequence: GGGCTTACGAAAGTACCC (((..(((....))))))
Result block: 0

Query block: How about this sequence: GCATAAGGAAACTTGTGC (((.(((....))).)))
Result block: 0

###

Measured Tm of individual entries
Experiment: melting temperature; fluorescence melt of hairpins on a sequencing array, two-state fit, raised by 9.35 °C to match UV melts
Conditions: sodium 0.088 M
The response must be a number in °C with no trailing unit.

Solved entries:
Query block: Form field: reported Tm of GAACGCGAAAGCGTTTC ((((((....))).)))
Result block: 57.7

Query block: How about this sequence: GAGGCTGGAAACAACCTC ((((.((....)).))))
Result block: 41.8

Query block: How about this sequence: GGAAACGAAAGTTGCTCC ((((((....)))..)))
Result block: 27.1

Query block: How about this sequence: GGAGAACCGAAAGGTTCC (((..(((....))))))
Result block: 43.1

Query block: How about this sequence: GCAGAGCGAAAGCAGTGC (((..((....))..)))
Result block: 45.8

# input for lookup
Query block: Form field: reported Tm of GTAGCCGAAAGGCAATAC ((((((....)))..)))
Result block: 31.2

###

Assay: folding enthalpy; higher = less favourable; fluorescence melt of hairpins on a sequencing array, two-state fit
Details: sodium 0.088 M
Classes (folding enthalpy): class A: < -40 kcal/mol; class B: ≥ -40 kcal/mol and < -20 kcal/mol; class C: ≥ -20 kcal/mol

Query block: Which folding enthalpy category applies to GATCCCCCGAAAGGGATC (((..(((....)))))) here?
Result block: class B

Query block: How about this sequence: GCGACGCGAAAGCATTGC ((.(.((....)).).))
Result block: class C

Query block: How about this sequence: GACCAAGAAATTGGTC ((((((....))))))
Result block: class B

Query block: How about this sequence: GCTACAGGAAACTGTAGC (((((((....)))))))
Result block: class A

Query block: How about this sequence: GTCTCCGAAAGGACTGAC ((((((....)))..)))
Result block: class C

Query block: How about this sequence: GCGGACGGAAACGCCCGC ((((.((....)).))))
Result block: class B

Query block: How about this sequence: GCGGTATCGAAAGATCGC (((..(((....))))))
Result block: class B

Query block: How about this sequence: GGACACGAAAGTGAATCC ((((((....)))..)))
Result block: class C

Would you kindly look at the next entry?
Query block: Which folding enthalpy category applies to GATCATTGTGATGATC ((((((....)))))) here?
Result block: class A
